System: Plasmodium falciparum
Assay method text: GSK_TCMDC: Inhibition of Plasmodium falciparum 3D7 in whole red blood cells, using parasite LDH activity as an index of growth. Test compounds present at 2uM
Assay type: functional
Task for the reader: assign each of the following molecules its reported Inhibition.
Put your answer as a value accompanied by its unit after it.

Q. Name the reported Inhibition value associated with the molecule "NC(=O)NC(=O)C=Cc1ccco1"
A. 97%

Q. I am curious: what Inhibition value has been reported for "Oc1cc(Nc2ccnc3cc(-c4cccc(CN5CCCCC5)c4)ccc23)c(F)cc1Cl" ?
A. 100%

Q. Bench note: what Inhibition did "CCCCOc1c(CNCCCCCCNCc2ccc3ccccc3c2OCCCC)ccc2ccccc12.CS(=O)(=O)O" show?
A. 96%

Q. So what's the measured Inhibition for this one? "COc1ccc(Cn2c(Nc3cccc(C(F)(F)F)c3)nc3cc(C(=O)NC4CC4)cnc32)cc1Cl"
A. 94%

Q. Which Inhibition reading was recorded for the molecule "COc1cc(Cc2cnc(N)nc2N)cc(OCCCCCCN)c1OC.Cl" ?
A. 96%

Q. Query (molecule): "Cc1ccc(C)c(Cn2ccc3nc(Cl)nc(Cl)c32)c1" ; field requested: Inhibition
A. 95%

Q. Looking for the measured Inhibition of "CC(C)(C)c1ccc(-c2nc3c(ccc4nc(N)nc(N)c43)[nH]2)cc1.Cl" , can you help?
A. 100%

Q. So what does the record say about Inhibition for "Cc1[nH]c(C)c(-c2ccc(OCCSc3ccncc3)cc2)c(=O)c1Br" ?
A. 95%

Q. Inhibition for "CN1CCN(Cc2cc3cc(NC(=O)/C=C/c4cccc(Cl)c4)ccc3s2)CC1.Cl" ?
A. 100%

Q. Item CCCCCCCN1CC[C@@H](CCCc2ccnc3ccc(OCC4CCCNC4)cc23)[C@@H](CC)C1.Cl (stereo not given in full) has what recorded Inhibition?
A. 98%
